What follows is a record of EC50 for Estrogen receptor (Homo sapiens, UniProt P03372, G521R/L384M/M421G).

Compound	EC50
O=C1CCC2(Cc3ccccc3)Cc3c(ccc4[nH]ncc34)C2=C1c1ccc(OCCN2CCCCC2)cc1 (centres undefined)	300 nM
O=C1CCC2(Cc3ccccc3)Cc3cc(O)ccc3C2=C1c1ccc(O)cc1 (centres undefined)	11 nM
O=C1CCC2(Cc3ccccc3)Cc3cc(O)ccc3C2=C1c1ccc(OCCN2CCCCC2)cc1 (centres undefined)	14 nM
O=C1CCC2(Cc3ccc(Cl)cc3)Cc3cc(O)ccc3C2=C1c1ccc(OCCN2CCCCC2)cc1 (centres undefined)	41 nM

====

What follows is a record of IC50 for Estrogen receptor beta (Homo sapiens).
Readout: IC50 (µM)

Compound	Readout	Obs Value
O=C1CCC2(Cc3ccc(Cl)cc3)Cc3cc(O)ccc3C2=C1c1ccc(OCCN2CCCCC2)cc1 (stereo not drawn)	IC50	2.2
CC1=C2c3ccc4[nH]ncc4c3CC2(Cc2ccccc2F)CCC1=O (stereo not drawn)	IC50	0.56
O=C1CCC2(Cc3ccccc3)Cc3c(ccc4[nH]ncc34)C2=C1c1ccc(OCCN2CCCCC2)cc1 (stereo not drawn)	IC50	0.13
CC1=C2c3ccc4nn[nH]c4c3CC2(Cc2ccccc2)CCC1=O (stereo not drawn)	IC50	5.8
CN(C)CCOc1ccc(C2=C3c4ccc(O)cc4CC3(Cc3ccccc3)CCC2=O)cc1 (stereo not drawn)	IC50	0.56
CC1=C2c3ccc4[nH]ncc4c3CC2(Cc2ccccc2)CCC1=O (stereo not drawn)	IC50	1.2

====

What follows is a record of IC50 for Estrogen receptor (Homo sapiens).
Readout: IC50 (µM)

Molecule	Obs Value
O=C1CCC2(Cc3ccc(Cl)cc3)Cc3cc(O)ccc3C2=C1c1ccc(OCCN2CCCCC2)cc1 (configuration not stated)	1.1
O=C1CCC2(Cc3ccccc3)Cc3cc(O)ccc3C2=C1c1ccc(OCCN2CCOCC2)cc1 (configuration not stated)	0.71
CC1=C2c3ccc4[nH]ncc4c3CC2(Cc2ccccc2F)CCC1=O (configuration not stated)	3.4
CC1=C2c3ccc(O)cc3CC2(Cc2ccccc2)CCC1=O (configuration not stated)	1.5
O=C1CCC2(Cc3ccccc3)Cc3c(ccc4[nH]ncc34)C2=C1c1ccc(OCCN2CCCCC2)cc1 (configuration not stated)	0.62
CN(C)CCOc1ccc(C2=C3c4ccc(O)cc4CC3(Cc3ccccc3)CCC2=O)cc1 (configuration not stated)	1.2
O=C1CCC2(Cc3ccccc3)Cc3cc(O)ccc3C2=C1c1ccc(O)cc1 (configuration not stated)	0.22
O=C1CCC2(Cc3ccccc3)Cc3cc(O)ccc3C2=C1c1ccc(OCCN2CCCCC2)cc1 (configuration not stated)	0.38

====

clearance overview
Experiment: Clearance in rat at 3 mg/kg, iv
Assay type: ADME, organism-based
Parameters: dose 3 mg/kg, route intravenous
Conditions: in vivo
Readout: clearance (mL/min/kg)

Compound	Readout	Obs Value
O=C1CCC2(Cc3ccccc3)Cc3cc(O)ccc3C2=C1c1ccc(OCCN2CCCCC2)cc1 (configuration not stated)	clearance	22
O=C1CCC2(Cc3ccccc3)Cc3cc(O)ccc3C2=C1c1ccc(O)cc1 (configuration not stated)	clearance	39

====

Biological target: Estrogen receptor (Homo sapiens, UniProt P03372)
Sequence (P03372 whole entry): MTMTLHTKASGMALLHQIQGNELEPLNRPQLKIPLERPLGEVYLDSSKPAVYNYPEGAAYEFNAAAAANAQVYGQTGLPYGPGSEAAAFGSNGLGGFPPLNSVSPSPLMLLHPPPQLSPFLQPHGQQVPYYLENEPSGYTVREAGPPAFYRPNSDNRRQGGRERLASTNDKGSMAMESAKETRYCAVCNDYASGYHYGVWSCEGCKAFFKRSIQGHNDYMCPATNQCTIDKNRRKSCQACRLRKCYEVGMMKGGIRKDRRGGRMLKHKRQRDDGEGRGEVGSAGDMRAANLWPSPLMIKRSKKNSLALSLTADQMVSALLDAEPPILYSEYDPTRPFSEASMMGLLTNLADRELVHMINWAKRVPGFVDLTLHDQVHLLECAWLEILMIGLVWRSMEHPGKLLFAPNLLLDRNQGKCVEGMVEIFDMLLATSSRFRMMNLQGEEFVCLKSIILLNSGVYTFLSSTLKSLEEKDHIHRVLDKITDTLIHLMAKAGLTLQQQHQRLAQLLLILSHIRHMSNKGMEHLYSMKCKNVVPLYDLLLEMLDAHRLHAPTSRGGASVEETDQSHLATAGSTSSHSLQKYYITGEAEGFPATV
Assay: Binding affinity to wild type ERalpha

Compound	IC50 (µM)
CC1=C2c3ccc(O)cc3CC2(Cc2ccc(Cl)cc2)CCC1=O (stereo unspecified)	6.8

Just for reference, ChEMBL document CHEMBL1149487 is where these values come from.
